Test system: IgE (Homo sapiens), P01854-1
Sequence (P01854 other isoform, or with tags, fused parts or gaps): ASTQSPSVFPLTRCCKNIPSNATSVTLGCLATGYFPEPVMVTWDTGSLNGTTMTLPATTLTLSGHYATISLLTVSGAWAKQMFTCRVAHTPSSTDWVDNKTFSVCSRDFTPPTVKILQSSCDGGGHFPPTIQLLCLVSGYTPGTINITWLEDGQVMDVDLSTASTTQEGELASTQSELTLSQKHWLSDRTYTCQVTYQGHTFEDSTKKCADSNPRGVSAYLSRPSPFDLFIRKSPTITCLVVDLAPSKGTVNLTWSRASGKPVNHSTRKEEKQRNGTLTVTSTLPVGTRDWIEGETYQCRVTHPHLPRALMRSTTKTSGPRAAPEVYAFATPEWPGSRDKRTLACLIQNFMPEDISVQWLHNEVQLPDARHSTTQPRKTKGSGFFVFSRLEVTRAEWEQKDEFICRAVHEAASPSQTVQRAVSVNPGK
protocol_summary: filter
particulars: as ARC1335 with 2'-OMe-2-aminopurine at 1; 3'-idT; DPBS with Ca/Mg, BSA, RT; parent 2.8 nM
property_measured: Kd (nM)
Value expressed in nM; do not type the unit.

What measured Kd goes with RGCCUGGGGACCCAUGGGGGGCU [ARC2040] ?
18.7

====

Test system: IgE (Homo sapiens), P01854-1
protocol_summary: filter
particulars: dRmY; 2'-deoxy-5mC at 11; dC at 22; DPBS with Ca/Mg, BSA, ssDNA, tRNA; parent 27 nM
property_measured: Kd (nM)
Answer in nM, number only, no unit symbol.

Look up Kd for this sequence: AGCCUGGGGACCCAUGGGGGGCU [ARC915]
16.9

====

Test system: IgE (Homo sapiens), P01854-1
protocol_summary: filter
particulars: dRmY; PS between 13 and 14, 16 and 17, 20 and 21; DPBS with Ca/Mg, BSA, RT; parent 12.6 nM
property_measured: pKd
Here pKd is given on a logarithmic scale as minus log10 of the concentration in mol/L.

I am curious: what pKd value has been reported for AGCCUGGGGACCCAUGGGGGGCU [ARC768] ?
8.46

====

Test system: IgE (Homo sapiens), P01854-1
protocol_summary: filter
particulars: dRmY; 2'-deoxy-5mC at 3; dC at 12 and 22; DPBS with Ca/Mg, BSA, ssDNA, tRNA; parent 13 nM
property_measured: Kd (nM)
Write the number in nM without appending the unit.

Given the entry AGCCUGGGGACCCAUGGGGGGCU [ARC925] , what Kd was observed with IgE (Homo sapiens), P01854-1?
8.1

====

Test system: IgE (Homo sapiens), P01854-1
protocol_summary: filter
particulars: as ARC1335 with dI at 17; 3'-idT [17]; DPBS with Ca/Mg, BSA, RT
property_measured: pKd
# log scale: pKd equals minus log10 of the concentration in mol/L

I'd like to know its pKd. The sequence in question is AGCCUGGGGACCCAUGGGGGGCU [ARC1563]
8.66

====

Tested on: IgE (Homo sapiens), P01854-1
protocol_summary: filter
particulars: as ARC1335 with dI at 2; 3'-idT [dI at 2 (parent base G); other modifications as ARC1335; 3'-idT]; DPBS with Ca/Mg, BSA, RT
property_measured: pKd
Entry type: numeric. Quantity: pKd, the -log10 of concentration in molar units.

What value of pKd has been recorded for this entry: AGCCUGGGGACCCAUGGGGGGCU [ARC1548]
8.48

====

Tested on: IgE (Homo sapiens), P01854-1
protocol_summary: filter
particulars: dRmY; dC in place of sixth mC (position 22, per description; printed sequence shows mC); DPBS with Ca/Mg, BSA, ssDNA, tRNA, RT; parent 14.6 nM
property_measured: pKd
Keep in mind that pKd stands for -log10 of concentration in molar terms.

Which value of pKd has been reported for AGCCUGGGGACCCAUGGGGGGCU [ARC608] in the records?
8.10

====

system_name: IL-23 (full length) (Homo sapiens) (UniProt Q9NPF7+P29460)
Sequence (Q9NPF7 20-189, chain 1 of 2): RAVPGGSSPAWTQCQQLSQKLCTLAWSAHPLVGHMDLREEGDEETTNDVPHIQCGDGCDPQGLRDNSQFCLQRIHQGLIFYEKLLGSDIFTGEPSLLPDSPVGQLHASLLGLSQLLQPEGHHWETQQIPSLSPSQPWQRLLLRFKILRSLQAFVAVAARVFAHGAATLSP
Sequence (P29460 23-328, chain 2 of 2): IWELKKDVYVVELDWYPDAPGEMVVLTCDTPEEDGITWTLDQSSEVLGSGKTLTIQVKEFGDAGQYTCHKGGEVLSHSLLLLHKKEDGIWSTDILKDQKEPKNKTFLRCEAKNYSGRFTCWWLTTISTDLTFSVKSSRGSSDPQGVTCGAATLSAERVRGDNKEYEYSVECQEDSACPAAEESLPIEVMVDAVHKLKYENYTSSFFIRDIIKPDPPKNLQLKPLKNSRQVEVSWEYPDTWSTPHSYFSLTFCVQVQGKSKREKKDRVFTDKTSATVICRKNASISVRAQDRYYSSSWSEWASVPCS
protocol_summary: filter
particulars: dRmY; 2'-OMe inosine for last mU; 3'-idT (last t of SEQ); DPBS with Ca/Mg, BSA, RT; parent 15 nM
property_measured: pKd
pKd (log units): -log10 of the concentration in mol/L.

I am curious: what pKd value has been reported for ACAGGCAAGUAAUUGGGGAGUGCGGGCGGGGUGN [ARC1702] ?
8.00
